Values from PubChem BioAssay (NCATS)

Target: Aldehyde dehydrogenase 1A1 (Homo sapiens)
Experiment: qHTS for Inhibitors of the Aldehyde Dehydrogenase Family (ALDH1A1) Confirmatory screens (AID 2061316); also: nearly all actives have a fitted effect of over 65% in size
Settings: ALDH inhibition qHTS; series mostly up to 47.3 µM
Inconclusive results are not listed. Active and inactive are the calls of the source. Calls follow the shape of the dose curve; as a rule, active = well fitted inhibition curve with a large enough effect; inconclusive = small, poorly fitted or top-dose-only effect; inactive = no such curve, though single readings can be large or run the other way.
Outcomes: active, inactive

INSERT INTO measurements (molecule, category) VALUES
  ('CC(C)(C)OC(=O)N1CCN(c2ccc(NCc3ccc(-c4ccc(C(C)(C)C)cc4)o3)cc2)CC1', 'active'),
  ('Cc1nnc(-c2ccc3occ(-c4ccc(S(C)=O)cc4)c3c2)o1 (stereo not given)', 'inactive'),
  ('CCCCc1ccc(NC(=O)CSc2nc3ccccc3nc2N2CCOCC2)cc1', 'inactive'),
  ('CC1=C(C)C(=O)C(CCCCC#CCCCC#CCO)=C(C)C1=O', 'active'),
  ('COc1ccccc1-c1cc(C(=O)NCc2ccc(C(F)(F)F)cc2)c2cnn(C)c2n1', 'inactive');

----------
Assay: BET inhibitor-based combinations targeting novel dependencies in MECOM-rearranged (r) AML: AML-194 cell line (AID 2202237; also: nearly all actives have a fitted effect of over 40% in size)
Conditions: AML-194 (MECOM-r AML) viability, CellTiter-Glo, 48 h; series mostly up to 46 µM
Inconclusive results are not listed. Active and inactive are the calls of the source. The call rests on the fitted dose curve; in most records, active means well fitted inhibition curve with a large enough effect; inconclusive means small, poorly fitted or top-dose-only effect; inactive means flat fitted curve, though single readings scatter.
Outcomes: active, inactive

INSERT INTO assay_data (compound, category) VALUES
  ('Nc1ncnc2c1nc(Cl)n2[C@@H]1O[C@H](CO)[C@@H](O)[C@@H]1O', 'active'),
  ('O=C(Nc1cc(C(F)(F)F)cc(C(F)(F)F)c1)c1cc(Cl)ccc1O', 'active'),
  ('Nc1nc(OCc2cc(Br)cs2)c2[nH]cnc2n1', 'inactive'),
  ('CCO[C@@H]1OC(=O)C[C@@H]1NC(=O)[C@@H]1CCCN1C(=O)[C@@H](NC(=O)c1ccc(N)c(Cl)c1)C(C)(C)C', 'inactive'),
  ('COc1ccc(F)c(F)c1C(=O)c1cnc(NC2CCN(S(C)(=O)=O)CC2)nc1N', 'active'),
  ('O=c1oc2c(O)c(O)cc3c(=O)oc4c(O)c(O)cc1c4c23', 'inactive'),
  ('Cc1cc(C)cc(NC(=O)Cc2ccc(OC(C)(C)C(=O)O)cc2)c1', 'inactive'),
  ('Fc1cc(-c2cccc3ncc(-c4cnn(C5CCNCC5)c4)nc23)cc(F)c1CN1CCOCC1', 'active'),
  ('CN(C)CC/C=C1/c2ccccc2COc2ccc(CC(=O)O)cc21', 'inactive'),
  ('CC(C)(Sc1ccc(CCN(CCCCC2CCCCC2)C(=O)NC2CCCCC2)cc1)C(=O)O', 'inactive'),
  ('CCN(CC)CCOc1ccc(Nc2ncc3cc(-c4c(Cl)cccc4Cl)c(=O)n(C)c3n2)cc1', 'active'),
  ('CC(C)[C@H](C(=O)Nc1ccc(C(=O)NO)cc1)c1ccccc1', 'active'),
  ('CC1=C(C(=O)Nc2cc3cn[nH]c3cc2F)C(c2ccc(C(F)(F)F)cc2)CC(=O)N1 (stereo not given)', 'inactive'),
  ('COc1cccc2c1C(=O)c1c(O)c3c(c(O)c1C2=O)C[C@@](O)(C(=O)CO)C[C@@H]3O[C@H]1C[C@H](N)[C@H](O)[C@H](C)O1', 'active'),
  ('CC(=O)c1cnc2ccc(-c3cc(Cl)c(O)c(Cl)c3)nc2c1NC1CCC(CN(C)C)CC1 (stereo not given)', 'active'),
  ('C=CC(=O)Nc1cc2c(Nc3ccc(F)c(Cl)c3)ncnc2cc1OCCCN1CCOCC1', 'active'),
  ('N#Cc1ccc(C2CCCc3cncn32)cc1 (stereo not given)', 'inactive'),
  ('COc1c(N2CCNC(C)C2)c(F)cc2c(=O)c(C(=O)O)cn(C3CC3)c12 (stereo not given)', 'inactive'),
  ('Nc1ccn([C@@H]2CS[C@H](CO)O2)c(=O)n1', 'inactive'),
  ('Cc1ccccc1C(C(=O)NC1CCCCC1)N(C(=O)CNc1ccc(C#N)cc1)c1cccc(F)c1 (stereo not given)', 'inactive');

----------
Experiment: BET inhibitor-based combinations targeting novel dependencies in MECOM-rearranged (r) AML: OCI-AML3 cell line (AID 2202232); also: nearly all actives have a fitted effect of over 35% in size; also: potency is read from the fitted curve at half-maximal effect
Details: CellTiter-Glo luminescence, 48 h; OCI-AML3 viability; series mostly up to 46 µM
Records with an inconclusive call do not appear. Calls of active or inactive are those of the source. Calls come from the whole dose curve; as a rule, active = well fitted inhibition curve with a large enough effect; inconclusive = small, poorly fitted or top-dose-only effect; inactive = no such curve, though single readings can be large or run the other way.
propertyName: Potency

INSERT INTO assay_data (compound, result) VALUES
  ('CCC(CC)CC1(C(=O)Nc2ccccc2SC(=O)C(C)C)CCCCC1', 'inactive'),
  ('COc1cc([C@@H]2c3cc4c(cc3[C@H](O)[C@H]3COC(=O)[C@@H]23)OCO4)cc(OC)c1OC', '833 nM (active)'),
  ('Cc1ccc(NC(=O)C2(c3ccc4c(c3)OC(F)(F)O4)CC2)nc1-c1cccc(C(=O)O)c1', 'inactive'),
  ('N#Cc1ccnc(N2C(=O)CC[C@H]2C(=O)N(c2cncc(F)c2)[C@H](C(=O)NC2CC(F)(F)C2)c2ccccc2Cl)c1', 'inactive'),
  ('COc1cc2c(Nc3ccc(Br)cc3F)ncnc2cc1OCC1CCN(C)CC1', '23500 nM (active)'),
  ('Cc1cc(C(C)Nc2ccccc2)c2nc(N3CCOCC3)cc(=O)n2c1 (centres undefined)', '2630 nM (active)'),
  ('Cc1ccc(O)c(C(CCN(C(C)C)C(C)C)c2ccccc2)c1 (centres undefined)', 'inactive'),
  ('O=C(NC1CCOCC1)c1ccc(-c2cc(-c3cn[nH]c3-c3ccccn3)ccn2)cc1', 'inactive'),
  ('CC(=O)[C@H]1CC[C@H]2[C@@H]3CC=C4C[C@@H](O)CC[C@]4(C)[C@H]3CC[C@]12C', 'inactive');

----------
Target: Cellular tumor antigen p53 (Homo sapiens)
Experiment: Primary qHTS for small molecule compounds that upregulate eGFP-tagged delta133p53alpha (in N-terminal) cells. (AID 2060322);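 also: cells pre-induced with doxycycline then dosed without doxycycline; 0% = DMSO vehicle and 100% = reference activator; nearly all actives have a fitted effect of over 75% in size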
Settings: NCI-H358 eGFP-delta133p53alpha fluorescence, 24 h; active compounds read high
Inconclusive results are not listed.
Class field: derived from activation; ranges 1: < -10%; 2: ≥ -10% and < 10%; 3: ≥ 10%

INSERT INTO measurements (molecule, category) VALUES
  ('C[C@@H](CN(C)C)CN1c2ccccc2Sc2ccccc21', 1),
  ('COc1ccc([C@H](Cc2ccncc2)c2ccccc2)cc1OC1CCCC1', 2),
  ('CC(C=CC=C(C)C=CC1=C(C)CCCC1(C)C)=CC=CC=C(C)C=CC=C(C)C=CC1=C(C)CCCC1(C)C', 3),
  ('COc1ccc(Oc2cc(C)c(-c3csc(NC(=O)c4ccncc4)n3)c(C)c2)cc1', 3),
  ('C/C=C(\C)C(=O)O[C@H]1C[C@](C)(O)[C@H]2CC=C(C)[C@H]2[C@@H]2OC(=O)[C@H](C)[C@H]21', 1),
  ('CC(=O)O[C@H]1[C@H](C)[C@@H](O)[C@H]2[C@@H]1C=C(C(=O)O)[C@H]1C[C@@H]3[C@H]([C@H]21)[C@H]1C(=O)O[C@@H]2CC[C@@]3(C)O[C@]1(O)[C@@H]2C', 1),
  ('CC(C)C[C@H](NC(=O)C1OC1C(=O)O)C(=O)NCCCCN=C(N)N (some centres undefined)', 2),
  ('CNCCCC1(c2ccccc2)OC(C)(C)c2ccccc21 (centres undefined)', 1),
  ('Cc1cc(C)c(NC(=O)N(Cc2ccc3c(c2)Cc2ccccc2-3)C2CCCCCC2)c(C)c1', 3);

----------
Test: BET inhibitor-based combinations targeting novel dependencies in MECOM-rearranged (r) AML: HNT-34 cell line (AID 2202234); also: nearly all actives have a fitted effect of over 35% in size; also: potency is read from the fitted curve at half-maximal effect
Conditions: HNT-34 AML viability, CellTiter-Glo luminescence, 48 h; series mostly up to 46 µM
Records with an inconclusive call do not appear. Active and inactive are the calls of the source. Calls come from the whole dose curve; as a rule, active = well fitted inhibition curve with a large enough effect; inconclusive = small, poorly fitted or top-dose-only effect; inactive = no such curve, though single readings can be large or run the other way.
propertyName: Potency

INSERT INTO measurements (molecule, result) VALUES
  ('COC(c1ccccc1)(c1ccccc1)[C@H](Oc1nc(C)cc(C)n1)C(=O)O', 'inactive'),
  ('OC(CCN1CCCCC1)(c1ccccc1)C1CC2C=CC1C2 (stereo not given)', 'inactive'),
  ('CCN(CC)CCn1c(=O)c(Cc2ccc(OC)cc2)nc2ccccc21', 'inactive'),
  ('CCN(CC)CCCC(C)Nc1c2ccc(Cl)cc2nc2ccc(OC)cc12 (stereo not given)', '7.42 µM (active)'),
  ('Cc1ccc(Nc2nccc(N(C)c3ccc4c(C)n(C)nc4c3)n2)cc1S(N)(=O)=O', '6.61 µM (active)');

----------
Experiment: BET inhibitor-based combinations targeting novel dependencies in MECOM-rearranged (r) AML: UCSD-AML1 cell line (AID 2202235); also: nearly all actives have a fitted effect of over 40% in size
Conditions: UCSD-AML1 AML cells viability, CellTiter-Glo, 48 h; series mostly up to 46 µM
Records with an inconclusive call do not appear. Activity calls are given as the source filed them. Calls follow the shape of the dose curve; as a rule, active = well fitted inhibition curve with a large enough effect; inconclusive = small, poorly fitted or top-dose-only effect; inactive = no such curve, though single readings can be large or run the other way.
Outcomes: YES for active, NO for inactive

INSERT INTO measurements (smiles, category) VALUES
  ('O=C(NC[C@H](O)CN1CCc2ccccc2C1)c1ccnc(NC2CCC2)c1', 'NO'),
  ('COC[C@H](NC(=O)c1cnc(C)s1)C(=O)N[C@@H](COC)C(=O)N[C@@H](Cc1ccccc1)C(=O)[C@@]1(C)CO1', 'YES'),
  ('NC(=O)c1ccc(N(C(N)=O)c2c(F)cccc2F)nc1-c1ccc(F)cc1F', 'NO'),
  ('CC(C)c1cc(-c2n[nH]c(=O)n2-c2ccc3c(ccn3C)c2)c(O)cc1O', 'YES'),
  ('COc1cc2c(cc1OCCCN1CCCC1)N=C(N)C21CCC1', 'NO');
